assay: Acid dissociation constant by alkali titration in THF/water=6/4; assay type: physicochemical; settings: mixed solvent of THF/water=6/4 by volume at 25° C.
Value Kind: Acid dissociation constant

Example entries begin here.
- Compound: "O=C(O)CC(O)(CC(=O)O)C(=O)O [Citric acid, citric acid, reference compound]"
  Acid dissociation constant: 4.0
- Compound: "Nc1c(F)c(F)c(C(=O)O)c(F)c1F [Organic acid C]"
  Acid dissociation constant: 5.0

# next compound below
Entry O=C(O)c1ccc(C(=O)O)cc1 [Terephthalic acid, reference compound] has what Acid dissociation constant?
4.5

---

Test: Acid dissociation constant by alkali titration in THF/water=6/4
Format: physicochemical
Details: mixed solvent of THF/water=6/4 by volume at 25° C.
Protocol: Preferably, the acid dissociation constant of the organic acid in a mixed solvent of THF/water=6/4 by volume at 25° C. is from 2.5 to 7, more preferably from 2.5 to 6.5, even more preferably from 3 to 5.
Acid dissociation constant vs 4: less than gives true (1); not less than gives false (0).

These solved cases illustrate the format of a correct answer.
- Molecule: "CCC(C)(C)c1ccc(OCCCC(=O)O)c(C(C)(C)CC)c1 [Organic acid F, reference compound]"
  Category: "false (0)"
- Molecule: "CC(=O)Nc1c(I)cc(I)c(C(=O)O)c1I"
  Category: "false (0)"
- Molecule: "O=C(O)C=Cc1ccccc1 [Cinnamic acid, cinnamic acid, reference compound]"
  Category: "false (0)"
- Molecule: "CCC(Oc1ccc(C(C)(C)CC)cc1C(C)(C)CC)C(=O)Nc1cccc(C(=O)O)c1 (centres unmarked)"
  Category: "false (0)"

Continue with the next molecule.
Criterion: Acid dissociation constant strictly below 4. Is it met by "O=C1NS(=O)(=O)c2ccccc21" ?
true (1)
